B1: CPEB3 Ribozyme (parent)
chain: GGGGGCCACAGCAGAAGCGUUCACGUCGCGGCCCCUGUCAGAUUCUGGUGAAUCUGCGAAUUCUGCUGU

- Variants of: B1
- experiment_description: self-cleavage, relative activity (ratio to wild type); higher = more cleavage; co-transcriptional
# label = class 1 if self-cleavage >= 0.4 else class 0

[Q] For this variant, is measured self-cleavage 0.4 or higher? C24G C45G
[A] class 1

[Q] Determine whether this variant has self-cleavage no lower than 0.4: G3A U53G
[A] class 0

[Q] Check if self-cleavage >= 0.4 (inclusive). Item: C35U C54A
[A] class 1

---
[Q] Has U20G U53A a recorded self-cleavage greater than or equal to 0.4?
[A] class 0

[Q] Does self-cleavage meet or surpass 0.4 for C12A G65A ?
[A] class 1

[Q] API: above_or_equal(metric=self-cleavage, cutoff=0.4) for item G50C G58C
[A] class 1

[Q] Please tell me: is the variant C34A C35G at or over 0.4 in terms of self-cleavage?
[A] class 0

[Q] API: above_or_equal(metric=self-cleavage, cutoff=0.4) for item U43G C63G
[A] class 1

[Q] Check if self-cleavage >= 0.4 (inclusive). Item: G48A U49G
[A] class 1

[Q] Does the variant A23C G65C have recorded self-cleavage that is 0.4 or more?
[A] class 1
